Listing of entries alongside the reported AC50.
Molecular target: UniProt P04150
Sequence (P04150 whole entry): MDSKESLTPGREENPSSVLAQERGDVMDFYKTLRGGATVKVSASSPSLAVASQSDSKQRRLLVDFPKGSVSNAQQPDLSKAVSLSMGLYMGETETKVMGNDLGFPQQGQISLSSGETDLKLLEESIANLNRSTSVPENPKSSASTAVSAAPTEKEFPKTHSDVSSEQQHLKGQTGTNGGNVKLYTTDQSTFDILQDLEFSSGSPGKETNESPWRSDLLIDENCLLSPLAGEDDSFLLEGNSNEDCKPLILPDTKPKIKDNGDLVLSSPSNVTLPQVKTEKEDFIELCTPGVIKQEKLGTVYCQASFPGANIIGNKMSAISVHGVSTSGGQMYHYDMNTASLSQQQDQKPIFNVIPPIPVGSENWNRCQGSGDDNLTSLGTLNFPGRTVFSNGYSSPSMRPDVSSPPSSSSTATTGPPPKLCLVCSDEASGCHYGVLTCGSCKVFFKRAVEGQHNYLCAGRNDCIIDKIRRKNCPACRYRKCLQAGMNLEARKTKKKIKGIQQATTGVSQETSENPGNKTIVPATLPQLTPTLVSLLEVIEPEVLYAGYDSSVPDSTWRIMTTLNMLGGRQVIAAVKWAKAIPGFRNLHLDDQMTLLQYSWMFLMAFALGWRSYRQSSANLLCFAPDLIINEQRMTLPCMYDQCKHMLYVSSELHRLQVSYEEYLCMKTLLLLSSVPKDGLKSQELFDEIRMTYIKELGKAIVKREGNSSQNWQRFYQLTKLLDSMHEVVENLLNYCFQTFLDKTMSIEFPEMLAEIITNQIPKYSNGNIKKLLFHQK
Assay type: functional

Solved entries (count: 2):
# query: AC50 of entry C[C@@H](O)[C@H]1C(=O)N2C(C(=O)O)=C(SCCN=CN)C[C@H]12 [IMIPENEM ANHYDROUS]
> 300 µM

O=C1[C@@H]2[C@H]3CC[C@H](C3)[C@@H]2C(=O)N1C[C@@H]1CCCC[C@H]1CN1CCN(c2nsc3ccccc23)CC1 ?
> 10 µM

Now consider the entry below.
# query: AC50 of entry COc1cccc2c1C(=O)c1c(O)c3c(c(O)c1C2=O)C[C@@](O)(C(=O)CO)C[C@@H]3O[C@H]1C[C@H](N)[C@H](O)[C@H](C)O1
11 µM

====

Target: D(3) dopamine receptor (Homo sapiens); further: assay procedure not described here
Sequence (P35462 whole entry): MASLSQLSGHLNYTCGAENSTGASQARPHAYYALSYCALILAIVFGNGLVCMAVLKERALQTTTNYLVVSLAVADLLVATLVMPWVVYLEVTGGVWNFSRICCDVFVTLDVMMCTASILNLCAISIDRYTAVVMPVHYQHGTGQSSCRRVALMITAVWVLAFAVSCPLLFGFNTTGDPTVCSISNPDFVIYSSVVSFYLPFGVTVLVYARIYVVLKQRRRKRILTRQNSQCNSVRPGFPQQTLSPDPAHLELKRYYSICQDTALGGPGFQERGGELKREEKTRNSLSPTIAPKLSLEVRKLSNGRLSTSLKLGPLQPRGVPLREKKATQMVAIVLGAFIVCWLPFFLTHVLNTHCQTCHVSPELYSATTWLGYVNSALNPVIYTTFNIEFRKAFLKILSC
Listing of entries alongside the reported AC50.

Solved entries (count: 10):
# query: AC50 of entry CCCCC[C@H](O)CC[C@@H]1[C@H]2Cc3cccc(OCC(=O)O)c3C[C@H]2C[C@H]1O
> 30 µM

O=C(C[S+]([O-])Cc1ccco1)NC/C=C\COc1cc(CN2CCCCC2)ccn1 (configuration not stated) ?
> 30 µM

Nc1nnc(-c2cccc(Cl)c2Cl)c(N)n1 ?
> 10 µM

CC(C)(CO)c1cc2cc(NC(=O)C3(c4ccc5c(c4)OC(F)(F)O5)CC3)c(F)cc2n1C[C@@H](O)CO ?
> 30 µM

COc1ccc(-n2nc(C(N)=O)c3c2C(=O)N(c2ccc(N4CCCCC4=O)cc2)CC3)cc1 ?
> 30 µM

CCOC(=O)Nc1ccc(NCc2ccc(F)cc2)nc1N ?
> 30 µM

CN1CCC(=C2c3ccccc3CC(=O)c3sccc32)CC1 ?
3 µM

O=C(O)[C@H]1/C(=C/CO)O[C@@H]2CC(=O)N21 ?
> 30 µM

C[C@H](CCC(=O)O)[C@H]1CC[C@H]2[C@@H]3[C@H](O)C[C@@H]4C[C@H](O)CC[C@]4(C)[C@H]3CC[C@]12C ?
> 30 µM

CN1C(=O)CN=C(c2ccccc2F)c2cc([N+](=O)[O-])ccc21 ?
> 30 µM

Now consider the entry below.
# query: AC50 of entry CN(C)CCC=C1c2ccccc2CCc2ccccc21
0.44 µM

====

Biological target: 5-hydroxytryptamine receptor 1A (Homo sapiens, UniProt P08908); further: assay procedure not described here
Sequence (P08908 whole entry): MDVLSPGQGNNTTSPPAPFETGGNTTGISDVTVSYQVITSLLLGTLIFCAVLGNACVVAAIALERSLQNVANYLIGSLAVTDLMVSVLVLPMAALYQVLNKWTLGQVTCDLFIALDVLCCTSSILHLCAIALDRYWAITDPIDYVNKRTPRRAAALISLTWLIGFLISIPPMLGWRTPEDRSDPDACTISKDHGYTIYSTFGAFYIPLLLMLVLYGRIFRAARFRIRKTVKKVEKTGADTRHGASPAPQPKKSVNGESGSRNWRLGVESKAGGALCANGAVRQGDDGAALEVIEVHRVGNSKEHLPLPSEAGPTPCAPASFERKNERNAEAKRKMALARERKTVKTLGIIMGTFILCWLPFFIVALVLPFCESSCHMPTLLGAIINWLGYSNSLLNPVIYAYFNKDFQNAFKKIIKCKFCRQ
Format: functional, cell-based
measuredParameter: AC50

# query: AC50 of entry C[C@]12CCC(=O)C=C1C=C[C@@H]1[C@@H]2CC[C@@]2(C)[C@H]1CC[C@@]21CCC(=O)O1
> 30 µM

CC(=O)OCC1=C(C(=O)O)N2C(=O)[C@@H](NC(=O)Cc3cccs3)[C@H]2SC1 ?
> 30 µM

CCCO[C@H]1[C@@H]([C@@H](COCc2ccc(Cl)cc2)OCc2ccc(Cl)cc2)OC(OCC)[C@@H]1O (stereo partly drawn) [CLOBENOSIDE] ?
> 30 µM

CC(C(=O)O)c1ccc(C(=O)c2ccccc2)s1 (stereo not drawn) ?
> 10 µM

CCC(=O)[C@@]1(C)[C@H](C)C[C@H]2[C@@H]3CCC4=CC(=O)C=C[C@]4(C)[C@H]3[C@@H](O)C[C@@]21C [RIMEXOLONE] ?
> 10 µM

CCOC(=O)C1=C(C)NC(C)=C(C(=O)OC)C1c1cccc(Cl)c1Cl (stereo not drawn) ?
> 10 µM

New cases:
# query: AC50 of entry C[C@]12CCC(=O)C=C1CC[C@H]1[C@@H]3CC[C@](O)(C(=O)CO)[C@@]3(C)C[C@H](O)[C@@]12F
> 10 µM

CCOCC(O)COc1ccc(NC(=O)CC[S+](C)C)cc1 (stereo not drawn) ?
> 30 µM
